Tested target: T1, human CD112R on antigen-specific CD8+ T cells (human, UniProt Q6DKI7 1-326)
T1 sequence (looked up): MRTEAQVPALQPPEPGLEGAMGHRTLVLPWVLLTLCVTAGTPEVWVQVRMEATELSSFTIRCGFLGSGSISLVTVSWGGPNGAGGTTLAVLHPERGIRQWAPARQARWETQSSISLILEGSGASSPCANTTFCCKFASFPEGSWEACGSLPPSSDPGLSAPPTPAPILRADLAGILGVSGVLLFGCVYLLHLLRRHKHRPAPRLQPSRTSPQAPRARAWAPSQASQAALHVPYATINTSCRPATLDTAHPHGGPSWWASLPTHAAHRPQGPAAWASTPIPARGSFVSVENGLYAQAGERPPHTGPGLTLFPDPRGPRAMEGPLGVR
Assay overview: cell-based or functional assay
For each entry below, report its IFN-γ(pg/ml) at 0.5µg/ml antibody value.
Numbers only, in pg/mL.

Please report IFN-γ(pg/ml) at 0.5µg/ml antibody for every entry that follows.
1. C8 (antibody, human IgG1, kappa, V domains shown) VH: EVQLVASGGGLVKPGGSLKLSCAASGFTFSDYYMFWVRQTPEKRLEWVATISDGGGYIYYPDSVKGRFTISRDNDRNSLYLQMSSLKSEDTAIYYCGREDFWGQGTSVTVSS VL: DIQMTQSPSSLSASLGERVSLTCRASQDIGRSLNWLQQEPDGSVRRLIYATSRLDSGVPKRFSGSRSGSDYSLTISSLESEDFVDYYCLQYASFPYTFGGGTKLEIKR
2. C3 (antibody, human IgG1, kappa, V domains shown) VH: QVQLQQSGPELVKPGASVKISCRSSGYTFTDYYINWVKQRPGQGLEWIGWIFPGSDYTYYNEKFKGKATLTVDKSSTTAYMLLSSLTSEDSAVYFCARDGGLRGPFDYWGQGTTLTVSS VL: DIQMTQSPSSLSASLGGKVTITCKASQDINKYIAWYQQKPGKGPRLLIHYTSTLQPGIPSRFSGSGSGRNSSFSISNLEPEDIATYYCLQYDNLHTFGGGTKLEIKR
3. C24 (antibody, human IgG1, kappa, V domains shown) VH: QVQLKQSGPGLVQPSQNLSITCTVSGFSLTGYGINWVRQSPGKGLEWLGVIWSGGNTEYNAAFRSRLSISKDTSKSQVFLKMNSLQADDTAIYSCARDSTGLYAMDYWGPGTSVTVSS VL: DLQMTQTTSSLSASLGDRVTISCRTSQDISNFLNWYQQKPDGPLKLLIYYTSRLHSGVPSRFSGSGSGTDYSLTISNLEQEDIATYFCQQGYMLPPTFGGGTKLEIKR
4. C18 (antibody, human IgG1, kappa, V domains shown) VH: EVQLVESGGGLVKPGGSLKLSCAASGFTFSDYYMYWVRQTPEKRLEWVATISDGGGFIYYPDSVKGRFTISRDNDRNSLYLLMSSLKSEDTAMYFCGREDLWGQGTSVTVSS VL: DIQMTQSPSSLSASLGERVSLTCRASQDIGRSLNWLQQGPDGTVKRLIYATSRLDSGVPTRFSGSRSGSDYSLTISSLESEDFVDYYCLQYASFPYTFGGGTKLEIKR
5. C20 (antibody, human IgG1, kappa, V domains shown) VH: EVQLVESGGGLVKPGGSLKLSCAASGFTFSDSYMCWVRQTPEKRLEWVATISDAGGYTYYPDSVKGRFTISRDNDRNNLYLQMSGLKSEDTAVYYCGREDLWGQGTSVTVSS VL: DIQMTQSPSSLSASLGERVSLTCRASQDIGRSLNWLQQEPDGTIKRLIYATSRLDSGVPKRFSGSRSGSDYSLTISSLESEDFVDYYCLQYASSPYTFGGGTKLEIKR
6. C12 (antibody, human IgG1, kappa, V domains shown) VH: EVQLVASGGGLVKPGGSLKLSCAASGFTFSDYYMYWVRQTPEKRLEWVATISDGGGYTYYPDSVKGRFTISRDNDRNSLYLQMSSLKSEDTAMYYCGREDLWGQGTSVTVSS VL: DIQMTQSPSSLSASLGERVSLTCRASQDIGSSLNWLQQEPDGTVKRLIYATSRLDSGVPKRFSGSRSGSDYSLTISSLESEDFVDYYCLQYASFPYTFGGGTKLEIKR

Ans.
722
535
611
748
708
608
